Molecular target: WT/R232 STING protein (Homo sapiens, UniProt Q86WV6, H232R)
Sequence (Q86WV6 whole entry H232R): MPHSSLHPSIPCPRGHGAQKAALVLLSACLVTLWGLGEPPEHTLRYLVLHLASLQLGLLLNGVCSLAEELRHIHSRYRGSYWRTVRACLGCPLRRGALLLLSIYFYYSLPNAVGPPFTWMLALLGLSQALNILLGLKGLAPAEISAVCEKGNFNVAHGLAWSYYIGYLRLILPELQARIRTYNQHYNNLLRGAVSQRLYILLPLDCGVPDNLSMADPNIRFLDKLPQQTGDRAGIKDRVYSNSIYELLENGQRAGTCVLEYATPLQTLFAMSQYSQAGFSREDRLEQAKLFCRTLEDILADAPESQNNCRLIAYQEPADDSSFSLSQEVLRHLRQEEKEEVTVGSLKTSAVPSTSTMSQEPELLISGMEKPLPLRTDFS
Experiment: Luciferase reporter assay in HEK293T-hSTING-Luciferase cells, WT/R232
Conditions: 20 hr stimulation, read-out: R232 Activity (EC50 range)
pEC50: −log10 of the molar value.
# pEC50 annotations

{"Smiles String": "O=C(NCCC1CCCCC1)c1ccc2c(c1)N(Cc1ccccc1)C(=O)CS2", "pEC50": "< 5.00"}
{"Smiles String": "O=C(NCc1ccco1)c1ccc2c(c1)N(Cc1cccc(Cl)c1Cl)C(=O)CS2", "pEC50": "5.00 to 6.00"}
{"Smiles String": "CC1(C)Sc2ccc(C(=O)NCc3cc4ccccc4o3)cc2N(Cc2c(F)cccc2Cl)C1=O", "pEC50": "> 6.00"}
{"Smiles String": "O=C(NCc1ccccc1)c1ccc2c(c1)N(Cc1ccccc1)C(=O)CS2", "pEC50": "5.00 to 6.00"}

###

Target: WT/R232 STING protein (Homo sapiens, UniProt Q86WV6, H232R)
Assay: Luciferase reporter assay in HEK293T-hSTING-Luciferase cells, WT/R232
Details: 20 hr stimulation, read-out: R232 Activity (EC50 range)
pEC50: −log10 of the molar value.
Reported Property: pEC50

{"Compound": "O=C(NCc1ccco1)c1ccc2c(c1)N(Cc1ccccc1)C(=S)CS2", "Target Of Assay": "WT/R232 STING protein (Homo sapiens, UniProt Q86WV6, H232R)", "Reported Value": "< 5.00"}
{"Compound": "Cc1noc(CN2C(=O)CSc3ccc(C(=O)NCc4ccco4)cc32)n1", "Target Of Assay": "WT/R232 STING protein (Homo sapiens, UniProt Q86WV6, H232R)", "Reported Value": "< 5.00"}
{"Compound": "O=C(NCc1c(F)cc(F)cc1F)c1ccc2c(c1)N(S(=O)(=O)c1cc(F)cc(F)c1)CCS2", "Target Of Assay": "WT/R232 STING protein (Homo sapiens, UniProt Q86WV6, H232R)", "Reported Value": "< 5.00"}
{"Compound": "Cc1ccc(CN2CCC(CNC(=O)c3ccc4c(c3)N(Cc3c(F)cccc3Cl)C(=O)CS4)CC2)cc1", "Target Of Assay": "WT/R232 STING protein (Homo sapiens, UniProt Q86WV6, H232R)", "Reported Value": "< 5.00"}
{"Compound": "O=C(NCC1CCCCC1)c1cnc2c(c1)N(Cc1c(F)cccc1Cl)C(=O)CS2", "Target Of Assay": "WT/R232 STING protein (Homo sapiens, UniProt Q86WV6, H232R)", "Reported Value": "< 5.00"}
{"Compound": "Cc1cnc(CNC(=O)c2ccc3c(c2)N(Cc2cnn(C)c2)C(=O)C(C)S3)o1 (stereo not drawn)", "Target Of Assay": "WT/R232 STING protein (Homo sapiens, UniProt Q86WV6, H232R)", "Reported Value": "< 5.00"}
{"Compound": "O=C(NCc1cc2cnccc2o1)c1ccc2c(c1)N(Cc1cc(F)cc(F)c1)C(=O)CC2", "Target Of Assay": "WT/R232 STING protein (Homo sapiens, UniProt Q86WV6, H232R)", "Reported Value": "< 5.00"}
{"Compound": "O=C(NCc1ccco1)c1ccc2c(c1)N(CC(O)c1ccccc1)C(=O)CS2 (stereo not drawn)", "Target Of Assay": "WT/R232 STING protein (Homo sapiens, UniProt Q86WV6, H232R)", "Reported Value": "< 5.00"}
{"Compound": "CC1(O)Sc2ccc(C(=O)NCc3c(F)cc(F)cc3F)cc2N(Cc2c(F)cccc2Cl)C1=O (stereo not drawn)", "Target Of Assay": "WT/R232 STING protein (Homo sapiens, UniProt Q86WV6, H232R)", "Reported Value": "5.00 to 6.00"}
{"Compound": "CC(c1ccccc1)N1C(=O)CSc2ccc(C(=O)NCc3ccco3)cc21 (stereo not drawn)", "Target Of Assay": "WT/R232 STING protein (Homo sapiens, UniProt Q86WV6, H232R)", "Reported Value": "< 5.00"}
{"Compound": "CC1Sc2ccc(C(=O)NCc3cnccn3)cc2N(Cc2cc(F)cc(F)c2)C1=O (stereo not drawn)", "Target Of Assay": "WT/R232 STING protein (Homo sapiens, UniProt Q86WV6, H232R)", "Reported Value": "< 5.00"}
{"Compound": "O=C(NCc1ccc2ccccc2c1)c1ccc2c(c1)N(Cc1c(F)cccc1Cl)C(=O)CS2", "Target Of Assay": "WT/R232 STING protein (Homo sapiens, UniProt Q86WV6, H232R)", "Reported Value": "5.00 to 6.00"}
{"Compound": "O=C(NCc1ccco1)c1ccc2c(c1)N(C(=O)c1ccccc1F)CCS2", "Target Of Assay": "WT/R232 STING protein (Homo sapiens, UniProt Q86WV6, H232R)", "Reported Value": "< 5.00"}
{"Compound": "CC1Sc2ccc(C(=O)NCc3cc4ccccc4o3)nc2N(Cc2c(F)cccc2Cl)C1=O (stereo not drawn)", "Target Of Assay": "WT/R232 STING protein (Homo sapiens, UniProt Q86WV6, H232R)", "Reported Value": "> 6.00"}
{"Compound": "Cc1cnc(CNC(=O)c2ccc3c(c2)N(Cc2cc(F)cc(F)c2)C(=O)C(C)S3)o1 (stereo not drawn)", "Target Of Assay": "WT/R232 STING protein (Homo sapiens, UniProt Q86WV6, H232R)", "Reported Value": "5.00 to 6.00"}
{"Compound": "CS(=O)(=O)NCCC1Sc2ccc(C(=O)NCc3c(F)cc(F)cc3F)cc2N(Cc2cc(F)cc(F)c2)C1=O (stereo not drawn)", "Target Of Assay": "WT/R232 STING protein (Homo sapiens, UniProt Q86WV6, H232R)", "Reported Value": "< 5.00"}
{"Compound": "O=C(NCc1ccco1)c1ccc2c(c1)N(C(=O)c1ccccc1)CCS2", "Target Of Assay": "WT/R232 STING protein (Homo sapiens, UniProt Q86WV6, H232R)", "Reported Value": "< 5.00"}
{"Compound": "O=C(NCc1ccco1)c1ccc2c(c1)N(Cc1cc(Cl)cc(C(F)(F)F)c1)C(=O)CS2", "Target Of Assay": "WT/R232 STING protein (Homo sapiens, UniProt Q86WV6, H232R)", "Reported Value": "5.00 to 6.00"}
{"Compound": "O=C(NCC1CCCC1)c1ccc2c(c1)N(Cc1c(F)cccc1Cl)C(=O)CS2", "Target Of Assay": "WT/R232 STING protein (Homo sapiens, UniProt Q86WV6, H232R)", "Reported Value": "< 5.00"}
{"Compound": "Cc1ccc(CNC(=O)c2ccc3c(c2)N(Cc2ccccc2)C(=O)CS3)o1", "Target Of Assay": "WT/R232 STING protein (Homo sapiens, UniProt Q86WV6, H232R)", "Reported Value": "5.00 to 6.00"}
{"Compound": "Cc1noc(CNC(=O)c2cnc3c(c2)N(Cc2cc(F)cc(F)c2)C(=O)C(C)S3)n1 (stereo not drawn)", "Target Of Assay": "WT/R232 STING protein (Homo sapiens, UniProt Q86WV6, H232R)", "Reported Value": "< 5.00"}
{"Compound": "O=C(NCc1ccc(F)cc1F)c1cnc2c(c1)N(Cc1ccc(F)cc1)C(=O)CC2", "Target Of Assay": "WT/R232 STING protein (Homo sapiens, UniProt Q86WV6, H232R)", "Reported Value": "< 5.00"}
{"Compound": "CC1Sc2ccc(C(=O)NCc3ccn(C)n3)cc2N(Cc2c(F)cccc2Cl)C1=O (stereo not drawn)", "Target Of Assay": "WT/R232 STING protein (Homo sapiens, UniProt Q86WV6, H232R)", "Reported Value": "< 5.00"}
{"Compound": "Cc1cccc(CNC(=O)c2ccc3c(n2)N(Cc2c(F)cccc2Cl)C(=O)C(C)S3)c1 (stereo not drawn)", "Target Of Assay": "WT/R232 STING protein (Homo sapiens, UniProt Q86WV6, H232R)", "Reported Value": "< 5.00"}
{"Compound": "CC1Sc2ncc(C(=O)NCc3cc4ccccc4o3)cc2N(Cc2cc(F)cc(F)c2)C1=O (stereo not drawn) [Example 194]", "Target Of Assay": "WT/R232 STING protein (Homo sapiens, UniProt Q86WV6, H232R)", "Reported Value": "> 6.00"}
{"Compound": "NCCC1Sc2ccc(C(=O)NCc3ccc(F)cc3F)cc2N(Cc2cc(F)cc(F)c2)C1=O (stereo not drawn)", "Target Of Assay": "WT/R232 STING protein (Homo sapiens, UniProt Q86WV6, H232R)", "Reported Value": "< 5.00"}
{"Compound": "CN(C)CC(NC(=O)c1ccc2c(c1)N(Cc1ccccc1)C(=O)CS2)c1ccccc1 (stereo not drawn)", "Target Of Assay": "WT/R232 STING protein (Homo sapiens, UniProt Q86WV6, H232R)", "Reported Value": "< 5.00"}
{"Compound": "CC1Sc2ccc(C(=O)NCCc3c(F)cc(F)cc3F)nc2N(Cc2cc(F)cc(F)c2)C1=O (stereo not drawn)", "Target Of Assay": "WT/R232 STING protein (Homo sapiens, UniProt Q86WV6, H232R)", "Reported Value": "< 5.00"}
{"Compound": "CC(NC(=O)c1ccc2c(c1)N(Cc1ccccc1)C(=O)CS2)c1ccco1 (stereo not drawn)", "Target Of Assay": "WT/R232 STING protein (Homo sapiens, UniProt Q86WV6, H232R)", "Reported Value": "< 5.00"}
{"Compound": "CC1(CC(=O)O)Sc2ccc(C(=O)NCc3ccco3)cc2N(Cc2ccccc2F)C1=O (stereo not drawn)", "Target Of Assay": "WT/R232 STING protein (Homo sapiens, UniProt Q86WV6, H232R)", "Reported Value": "< 5.00"}
{"Compound": "O=C(NCc1ncccn1)c1ccc2c(c1)N(Cc1ccccc1)C(=O)CS2", "Target Of Assay": "WT/R232 STING protein (Homo sapiens, UniProt Q86WV6, H232R)", "Reported Value": "< 5.00"}
{"Compound": "CN(Cc1ccco1)C(=O)c1ccc2c(c1)N(Cc1ccccc1)C(=O)CS2", "Target Of Assay": "WT/R232 STING protein (Homo sapiens, UniProt Q86WV6, H232R)", "Reported Value": "< 5.00"}
{"Compound": "Cc1nc(CN2C(=O)CSc3ccc(C(=O)NCc4ccco4)cc32)cs1", "Target Of Assay": "WT/R232 STING protein (Homo sapiens, UniProt Q86WV6, H232R)", "Reported Value": "< 5.00"}
